Target: furin, P09958;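 further: purified furin at 1:10 enzyme:substrate in 50 mM HEPES pH 7.5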
Sequence (P09958 whole entry): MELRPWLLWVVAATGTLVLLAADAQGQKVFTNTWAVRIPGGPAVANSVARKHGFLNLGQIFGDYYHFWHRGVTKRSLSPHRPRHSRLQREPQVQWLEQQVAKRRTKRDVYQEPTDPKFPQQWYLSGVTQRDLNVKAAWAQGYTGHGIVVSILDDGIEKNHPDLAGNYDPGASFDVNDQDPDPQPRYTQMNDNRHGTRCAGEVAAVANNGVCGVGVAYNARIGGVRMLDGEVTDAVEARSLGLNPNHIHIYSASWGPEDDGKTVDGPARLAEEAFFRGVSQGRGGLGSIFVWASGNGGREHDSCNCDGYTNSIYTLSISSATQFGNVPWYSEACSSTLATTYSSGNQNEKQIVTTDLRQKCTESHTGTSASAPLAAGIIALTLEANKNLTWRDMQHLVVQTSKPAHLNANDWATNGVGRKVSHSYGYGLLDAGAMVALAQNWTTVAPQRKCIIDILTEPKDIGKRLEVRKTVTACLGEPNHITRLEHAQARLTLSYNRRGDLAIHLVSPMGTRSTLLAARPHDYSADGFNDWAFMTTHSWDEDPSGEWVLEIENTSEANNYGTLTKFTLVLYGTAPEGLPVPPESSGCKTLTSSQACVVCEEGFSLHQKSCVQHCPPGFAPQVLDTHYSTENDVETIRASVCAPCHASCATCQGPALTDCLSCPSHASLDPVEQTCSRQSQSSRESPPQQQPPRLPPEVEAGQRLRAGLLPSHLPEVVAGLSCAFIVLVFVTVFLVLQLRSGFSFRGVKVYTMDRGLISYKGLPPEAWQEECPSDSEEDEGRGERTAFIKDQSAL
Assay: furin cleavage Z-score vs untreated control; higher = more cleavage, active = 3.5 or more, inactive = 1 or less, 8 variable residues between constant flanks
Settings: 7.5 min
The other results are listed elsewhere or left out. The hit rate among all sequences tested is not known here.
furin cleavage Z-score below 7 gives not satisfied; furin cleavage Z-score at or above it gives satisfied.

Request: State whether the measured furin cleavage Z-score reaches 7, counting equality as reaching it, for CAGPLWILQAAGNASASA [HC609]
Result: not satisfied

Request: State whether the measured furin cleavage Z-score reaches 7, counting equality as reaching it, for CAVRSRMRRAAGNASASA [FS-1500]
Result: satisfied

Request: State whether the measured furin cleavage Z-score reaches 7, counting equality as reaching it, for CALPSRQKKAAGNASASA [FS-1365]
Result: not satisfied

Request: State whether the measured furin cleavage Z-score reaches 7, counting equality as reaching it, for CAVPSRQSRAAGNASASA [FS-207]
Result: satisfied

Request: State whether the measured furin cleavage Z-score reaches 7, counting equality as reaching it, for CACSFTTLPAAGNASASA [HC499]
Result: not satisfied

Request: State whether the measured furin cleavage Z-score reaches 7, counting equality as reaching it, for CAPSFRDRRAAGNASASA [FS-1244]
Result: satisfied

Data provenance: the supplement of paper PMC3545927
